Items are presented alongside their recorded inhibition.
EXPERIMENTAL SYSTEM: Beta-lactamase TEM (Escherichia coli) (UniProt P62593)
Sequence (P62593 whole entry, looked up): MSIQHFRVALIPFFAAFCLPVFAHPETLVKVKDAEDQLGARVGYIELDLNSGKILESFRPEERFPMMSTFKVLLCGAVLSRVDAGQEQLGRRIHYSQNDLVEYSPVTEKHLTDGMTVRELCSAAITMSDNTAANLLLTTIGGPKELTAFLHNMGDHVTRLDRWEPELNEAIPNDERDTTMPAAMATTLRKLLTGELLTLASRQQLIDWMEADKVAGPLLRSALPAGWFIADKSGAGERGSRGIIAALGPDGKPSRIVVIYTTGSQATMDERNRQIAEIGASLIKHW
METHOD NOTES: inhibition of purified E. coli TEM-1 enzyme – biochemical, epi-absorbance, HTS, counter-screen for VIM-2 inhibitor project (AID 1866);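 also: 0% = TEM-1 with DMSO and 100% = TEM-1 with 100 µM potassium clavulanate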
TEST CONTEXT: Purified TEM-1, nitrocefin hydrolysis, epi-absorbance fluorescence; at 5.6 µM; stronger effect = higher value
Hit rate of the full screen: of about 1,300 compounds, about 40 (3%) were called active. Only a sample is shown.
Supply the numeric figure in %, leaving out any unit text.

// known answers, use as guide
MOLECULE: COc1ccc(-c2nn3c(-c4ccccc4)nnc3s2)cc1OC
REPORTED: -11.4
--
MOLECULE: CN1CCN(c2ccc(NC(=O)c3ccc4c(c3)[nH]c(=O)n4Cc3ccc(F)cc3)cc2)CC1
REPORTED: -7.55
--
MOLECULE: CCN1CCCC1CNC(=O)c1cc2c(=O)n(C)c3ccccc3c2n1C (stereo not given)
REPORTED: -6.31
--
MOLECULE: CCC1CCCCN1CCCNC(=O)c1cc2c(Cl)nc3ccccc3c2s1 (stereo not given)
REPORTED: -6.12
--
MOLECULE: COc1ccc(Cc2nnc(NS(=O)(=O)Cc3ccccc3)s2)cc1
REPORTED: -3.28

Value of inhibition reported for the molecule CC1CCCC(C)N1CCCNC(=O)c1cc2c(=O)n(C)c3ccccc3c2n1C (stereo not given) is -6.6

Value of inhibition reported for the molecule CCc1cc(=O)oc2cc(C)cc(OCC(=O)N3CCC[C@@H]3C(=O)O)c12 is -5.9

Value of inhibition reported for the molecule Cn1c2ccccc2c(=O)c2c(O)cccc21 is -0.94

Value of inhibition reported for the molecule CCN1CCN(CCNC(=O)c2ccc3c(c2)NC(=O)/C(=C\c2ccc(OC)c(OC)c2)S3)CC1 is -9.31

Value of inhibition reported for the molecule CCN(CC)c1ccc2cc(C(N)=O)/c(=N\NC(=O)c3ccncc3)oc2c1 is -8.43

The reported numbers originate from PubChem BioAssay AID1866.
